# Study system: human TLR8 (Homo sapiens)
# Sequence (Q9NR97 27-1041): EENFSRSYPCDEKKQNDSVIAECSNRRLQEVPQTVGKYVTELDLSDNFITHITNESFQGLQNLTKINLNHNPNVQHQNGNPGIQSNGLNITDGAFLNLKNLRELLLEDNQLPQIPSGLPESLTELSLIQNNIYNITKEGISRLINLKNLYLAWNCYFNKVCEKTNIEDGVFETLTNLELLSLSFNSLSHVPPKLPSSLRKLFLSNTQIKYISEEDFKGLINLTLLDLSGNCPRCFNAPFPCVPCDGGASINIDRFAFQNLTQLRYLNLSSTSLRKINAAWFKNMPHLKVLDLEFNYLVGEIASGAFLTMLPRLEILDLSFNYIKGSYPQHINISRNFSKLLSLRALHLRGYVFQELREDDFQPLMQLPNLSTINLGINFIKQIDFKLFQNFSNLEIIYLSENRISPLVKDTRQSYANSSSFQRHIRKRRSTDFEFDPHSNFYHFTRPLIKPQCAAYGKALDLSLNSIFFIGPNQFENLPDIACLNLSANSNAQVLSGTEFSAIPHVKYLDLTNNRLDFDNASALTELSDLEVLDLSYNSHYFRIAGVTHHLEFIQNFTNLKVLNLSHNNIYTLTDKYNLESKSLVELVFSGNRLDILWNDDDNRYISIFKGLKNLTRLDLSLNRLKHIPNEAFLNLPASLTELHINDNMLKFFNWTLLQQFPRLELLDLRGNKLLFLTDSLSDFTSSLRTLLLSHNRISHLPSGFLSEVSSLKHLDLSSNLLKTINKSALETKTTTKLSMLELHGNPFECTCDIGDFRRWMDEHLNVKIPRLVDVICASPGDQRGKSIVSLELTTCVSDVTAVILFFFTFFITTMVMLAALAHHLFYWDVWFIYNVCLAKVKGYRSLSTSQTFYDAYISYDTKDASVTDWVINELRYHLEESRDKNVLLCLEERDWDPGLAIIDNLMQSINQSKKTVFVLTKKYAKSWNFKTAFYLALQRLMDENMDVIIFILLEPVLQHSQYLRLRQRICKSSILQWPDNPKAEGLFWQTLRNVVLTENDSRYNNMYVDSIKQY
# Method description: TLR8 inhibition reporter assay (HEK-Blue cells, SEAP reporter, R848 stimulation)
# Reported conditions: HEK-Blue cells overexpressing human TLR8, R848 15.9 μM
Definition: the class of an entry is the range in category 1: < 70 nM; category 2: ≥ 70 nM and < 300 nM; category 3: ≥ 300 nM that contains its IC50.

Use these answered entries as a reference point.
>>> discrete_label("COc1ccc(-c2[nH]c3ccc(C4CCN(CC(=O)NCCO)CC4)cc3c2C(C)C)cc1OC")
"category 1"
>>> discrete_label("COc1ccc(-c2[nH]c3ccc(C4CCN(C(=O)Cc5nnn[nH]5)CC4)cc3c2CC(F)(F)F)cc1OC")
"category 3"
>>> discrete_label("COc1ccc(-c2[nH]c3ccc(C4CCN(C(=O)CNCCC(C)O)CC4)cc3c2C)cc1OC (stereo not drawn)")
"category 3"
>>> discrete_label("CCc1c(-c2ccc(OC)c(OC)c2)[nH]c2ccc(C3CCN(C(=O)CNCC#N)CC3)cc12")
"category 3"
>>> discrete_label("CCc1c(-c2ccc(OC)c(OC)c2)[nH]c2ccc(C3CCN(C4CCN(Cc5c(C)[nH]c6ccccc56)CC4)CC3)cc12")
"category 3"

# input Category of COc1ccc(-c2[nH]c3ccc(C4CCN(C(=O)CN(C)C)CC4)cc3c2CC(F)F)cc1OC :
# output category 2

# input Using the reported IC50, which band applies to COc1ccc(-c2[nH]c3ccc(C4CCN(C5CCN(CC(C)(C)CO)CC5)CC4)cc3c2C)cc1OC ?
# output category 3

# input In plain terms, what class is CCN1CCCC(N2CCC(c3ccc4[nH]c(-c5ccc(OC)c(OC)c5)c(C)c4c3)CC2)CC1 (stereo not drawn) ?
# output category 2
